pIC50: −log10 of the molar value.
Reported pIC50 values, Cyclin-dependent kinase 1 (Homo sapiens, UniProt P06493).

Nc1ncnc2c1c(-c1ccccc1)cn2-c1ccc(CNCCO)cc1 = 4.08
COc1cccc(-c2cn(-c3ccc(CNCCO)cc3)c3ncnc(N)c23)c1 = < 5.00
Nc1ncnc2c1c(-c1ccccc1)cn2-c1ccccc1 = 4.27
Nc1ncnc2c1c(-c1cccc(Cl)c1)cn2-c1ccccc1 = < 4.00
CCOC(=O)c1ccc(-c2cn(-c3ccccc3)c3ncnc(N)c23)cc1 = < 5.00

## Task Using Cyclin-dependent kinase 1 (Homo sapiens, UniProt P06493) as the test system, report measured pIC50 of Cc1ccccc1-c1cn(-c2ccccc2)c2ncnc(N)c12 .
## Result 4.05

## Task Look up Cyclin-dependent kinase 1 (Homo sapiens, UniProt P06493) data: pIC50 of Nc1ncnc2c1c(-c1ccccc1)cn2-c1cccc(CNCCO)c1 , then report it.
## Result < 5.00

## Task Lab note: record pIC50 of COc1ccc(-c2cn(-c3ccccc3)c3ncnc(N)c23)cc1 tested on Cyclin-dependent kinase 1 (Homo sapiens, UniProt P06493).
Sequence (P06493 whole entry): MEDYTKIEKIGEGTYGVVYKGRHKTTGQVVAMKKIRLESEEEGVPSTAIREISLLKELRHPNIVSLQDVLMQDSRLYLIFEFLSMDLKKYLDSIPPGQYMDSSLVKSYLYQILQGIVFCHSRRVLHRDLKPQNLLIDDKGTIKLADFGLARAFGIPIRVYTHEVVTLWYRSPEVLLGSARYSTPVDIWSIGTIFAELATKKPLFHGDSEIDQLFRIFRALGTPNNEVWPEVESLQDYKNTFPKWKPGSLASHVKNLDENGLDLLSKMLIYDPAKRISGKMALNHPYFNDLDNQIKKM
## Result < 5.00

---

- ASSAY_TARGET: Epidermal growth factor receptor (Homo sapiens, UniProt P00533)
- Sequence (P00533 whole entry): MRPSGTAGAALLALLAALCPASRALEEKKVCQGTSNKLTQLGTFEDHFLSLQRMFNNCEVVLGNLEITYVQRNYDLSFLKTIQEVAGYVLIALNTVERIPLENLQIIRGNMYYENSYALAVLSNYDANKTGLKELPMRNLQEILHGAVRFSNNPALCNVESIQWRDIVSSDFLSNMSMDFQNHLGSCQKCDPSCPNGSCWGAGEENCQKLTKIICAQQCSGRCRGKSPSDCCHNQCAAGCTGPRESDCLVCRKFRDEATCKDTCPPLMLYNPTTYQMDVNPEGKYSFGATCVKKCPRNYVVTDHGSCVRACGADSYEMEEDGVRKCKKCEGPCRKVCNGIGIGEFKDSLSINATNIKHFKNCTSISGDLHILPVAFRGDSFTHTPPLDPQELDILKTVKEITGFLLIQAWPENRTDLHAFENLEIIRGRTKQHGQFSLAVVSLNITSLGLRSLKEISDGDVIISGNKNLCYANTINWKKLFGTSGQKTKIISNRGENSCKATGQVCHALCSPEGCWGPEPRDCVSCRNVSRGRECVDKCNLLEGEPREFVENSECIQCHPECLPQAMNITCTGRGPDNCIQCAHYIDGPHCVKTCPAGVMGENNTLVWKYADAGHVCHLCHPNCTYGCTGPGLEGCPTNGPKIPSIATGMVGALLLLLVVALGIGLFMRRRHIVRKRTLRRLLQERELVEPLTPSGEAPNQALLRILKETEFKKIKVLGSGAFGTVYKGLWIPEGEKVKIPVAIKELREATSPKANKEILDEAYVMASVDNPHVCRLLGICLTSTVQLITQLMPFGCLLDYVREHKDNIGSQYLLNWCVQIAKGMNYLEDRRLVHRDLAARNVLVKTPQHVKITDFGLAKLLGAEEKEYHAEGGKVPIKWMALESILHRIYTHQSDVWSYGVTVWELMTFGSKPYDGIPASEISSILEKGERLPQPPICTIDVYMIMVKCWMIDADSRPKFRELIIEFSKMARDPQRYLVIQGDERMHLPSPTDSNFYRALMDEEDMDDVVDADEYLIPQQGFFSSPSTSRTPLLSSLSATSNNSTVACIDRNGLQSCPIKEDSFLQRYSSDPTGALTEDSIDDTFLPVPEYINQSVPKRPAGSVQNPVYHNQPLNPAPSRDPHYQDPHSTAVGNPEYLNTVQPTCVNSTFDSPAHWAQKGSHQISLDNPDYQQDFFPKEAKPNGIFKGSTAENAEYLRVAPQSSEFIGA
- ASSAY_REMARKS: Tested for inhibition of EGF-receptor tyrosine kinase in intact cells
PROPERTY: pIC50
In plain terms, pIC50 is the concentration in mol/L turned into minus its base-10 logarithm.

COc1cccc(-c2cn(-c3ccc(CNCCO)cc3)c3ncnc(N)c23)c1 = 5.19
Nc1ncnc2c1c(-c1ccccc1)cn2-c1cccc(CO)c1 = 4.92

Next:
## Task Return pIC50 for the following molecule: COc1cccc(-c2cn(-c3ccc(CCN(C)CCO)cc3)c3ncnc(N)c23)c1
## Result 5.00

---

- ASSAY_TARGET: Proto-oncogene tyrosine-protein kinase Src (Gallus gallus, UniProt P00523)
- ASSAY_REMARKS: Inhibition of protein tyrosine kinase c-Src
PROPERTY: pIC50
For clarity, pIC50 is expressed as the negative log10 of concentration in mol/L.

## Task Return pIC50 (reported value) for this compound: Nc1ncnc2c1c(-c1ccccc1)nn2-c1ccccc1
## Result 6.30

---

- ASSAY_TARGET: Proto-oncogene tyrosine-protein kinase Src (Gallus gallus, UniProt P00523)
- ASSAY_REMARKS: Tested for inhibition of protein tyrosine kinase c-Src phosphorylation
Threshold 100 nM. IC50 below it: yes (1). IC50 at it or above: no (0).

# count of solved cases: 5
COc1cccc(-c2cn(-c3cccc(CO)c3)c3ncnc(N)c23)c1 = yes (1)
O=c1[nH]cnc2c1c(-c1ccccc1)cn2-c1ccccc1 = no (0)
Nc1ncnc2c1c(-c1ccccc1)cn2-c1ccc(CNCCO)cc1 = yes (1)
COc1ccc(-c2cn(-c3ccccc3)c3ncnc(N)c23)cc1 = no (0)
Clc1ncnc2c1c(-c1ccccc1)cn2-c1ccccc1 = no (0)

Now for a further compound.
## Task Strictly below 100 nM: is that where IC50 of Nc1ncnc2c1c(-c1ccccc1)cn2-c1ccc(CO)cc1 sits?
## Result yes (1)

---

- ASSAY_TARGET: Epidermal growth factor receptor (Homo sapiens, UniProt P00533)
- ASSAY_REMARKS: Tested in vitro for inhibition of EGF-receptor tyrosine kinase
Label 1 when IC50 is strictly below 1 µM; otherwise label 0.

Illustrative cases are given below, each with its answer.
Nc1ncnc2c1c(-c1ccccc1)cn2-c1ccc(CNCCO)cc1 = 0
Nc1ncnc2c1c(-c1ccccc1)cn2-c1ccccc1CO = 0

## Task Bench note: check whether Nc1ncnc2c1c(-c1ccccc1)cn2-c1ccccc1CNCCO shows IC50 below 1 µM
## Result 0

## Task Identify whether the compound CCOC(=O)c1ccc(-c2cn(-c3ccccc3)c3ncnc(N)c23)cc1 records IC50 below 1 µM.
## Result 0

## Task Regarding Nc1ncnc2c1c(-c1cccc(Cl)c1)cn2-c1ccccc1 , kindly confirm whether its IC50 is beneath 1 µM.
## Result 1

## Task Please determine if COc1ccc(-c2cn(-c3ccccc3)c3ncnc(N)c23)cc1 is below 1 µM in terms of IC50.
## Result 1

The measurements presented in this section are drawn from ChEMBL document CHEMBL1133080.
